Assayed system: T1, carrier-free soluble human IL-6R (R&D) (human, UniProt P08887 20-365)
T1 construct: extracellular domain; also called shuIL-6R; shuIL6-R
T1 sequence (looked up): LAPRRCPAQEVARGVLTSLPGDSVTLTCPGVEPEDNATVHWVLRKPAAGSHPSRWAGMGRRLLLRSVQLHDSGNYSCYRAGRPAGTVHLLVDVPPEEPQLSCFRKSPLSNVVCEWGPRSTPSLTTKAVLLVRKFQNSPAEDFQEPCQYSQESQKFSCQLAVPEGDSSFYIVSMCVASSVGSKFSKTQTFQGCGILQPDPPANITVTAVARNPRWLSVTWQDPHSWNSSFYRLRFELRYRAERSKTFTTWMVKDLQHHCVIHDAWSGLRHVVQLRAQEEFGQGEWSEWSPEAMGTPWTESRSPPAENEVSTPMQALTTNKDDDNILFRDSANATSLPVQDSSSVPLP
Assay text: SPR (Biacore 2000), mAb captured on anti-human IgG Fc, analyte in solution, 25 C, 1:1 Langmuir
Measurement kind: kon (M⁻¹ s⁻¹)
Write the number in M⁻¹ s⁻¹ without appending the unit.

Request: Provide only the value of recorded kon for NI-1201-C antibody (antibody, V domains shown) VH: QVQLVQSGAEVKKPGSSVKVSCKASGGTFSSYAISWVRQAPGQGLEWMGGIIPAFETTKYAQKFQGRVTITADESTSTAYMELSSLRSEDTAVYYCARDRDILTDYYPLGGMDVWGQGTTVTVSS VL: AIQLTQSPSSLSASVGDRVTITCRASQGISSVLAWYQQKPGKAPKLLIYDASSLESGVPSRFSGSGSGTDFTLTISSLQPEDFATYYCQQSNSYPLTFGGGTKVEIKR
Result: 992000
